ASSAYED TARGET: T1, human CD40 extracellular domain with C-terminal His-AviTag (human, UniProt P25942 21-193)
T1 construct: not shown: C-terminal His-AviTag
T1 sequence (P25942 21-193): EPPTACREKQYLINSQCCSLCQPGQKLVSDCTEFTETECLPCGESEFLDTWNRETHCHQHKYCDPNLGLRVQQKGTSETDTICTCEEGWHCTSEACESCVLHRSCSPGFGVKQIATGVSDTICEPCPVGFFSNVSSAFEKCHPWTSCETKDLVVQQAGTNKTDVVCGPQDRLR
ASSAY PROCEDURE: SPR, antibody captured, CD40 ECD analyte;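 also: biacore SPR at 25 °C in PBS-T pH 7.4, CD40 ECD analyte from 300 nM in 1:3 series, 300 s association, up to 1200 s dissociation, double-referenced, Langmuir 1:1 fit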
Field: kon. Provide a value for each of the binders that follow.
Give bare numbers, in M⁻¹ s⁻¹.

P1AE1004, humanized anti-CD40 antibody VH1b/VL1c, huIgG1_LALA_PG (antibody, V domains shown, huIgG1 with effector silent Fc (P329G, L234A, L235A)) VH: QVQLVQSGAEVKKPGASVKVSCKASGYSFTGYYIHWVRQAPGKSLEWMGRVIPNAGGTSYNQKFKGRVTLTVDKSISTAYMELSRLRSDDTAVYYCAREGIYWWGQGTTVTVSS VL: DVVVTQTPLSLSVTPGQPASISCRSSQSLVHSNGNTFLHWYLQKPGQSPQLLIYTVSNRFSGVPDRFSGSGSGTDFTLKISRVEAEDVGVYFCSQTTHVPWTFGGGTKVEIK
2.63e+06

--- query ---
Query :: Provide measured kon value, entry: P1AE1007, humanized anti-CD40 antibody VH1d/VL1b, huIgG1_LALA_PG (antibody, V domains shown, huIgG1 with effector silent Fc (P329G, L234A, L235A)) VH: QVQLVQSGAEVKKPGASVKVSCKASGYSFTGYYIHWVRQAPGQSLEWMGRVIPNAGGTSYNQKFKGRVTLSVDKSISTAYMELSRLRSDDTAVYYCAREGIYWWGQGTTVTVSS VL: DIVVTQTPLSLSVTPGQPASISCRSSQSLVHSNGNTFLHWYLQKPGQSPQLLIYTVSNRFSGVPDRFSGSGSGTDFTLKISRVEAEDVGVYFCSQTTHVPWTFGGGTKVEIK
Result :: 2.5e+06
